molecular target: Replicase polyprotein 1ab (Severe acute respiratory syndrome coronavirus 2); details: dose 1.0 µM, time 65.0 min
experimental_endpoint: inhibition (%)
Answers are plain numbers, in %.

Example cases with answers are listed next.
INSERT INTO results (compound, experimental_endpoint, assay_result) VALUES
  ('CN(C(=O)[C@@H]1CCCN1C(=O)[C@@H](NC(=O)c1cccs1)C(C)(C)C)N(C#N)Cc1cccc(Cl)c1F', 'inhibition', 5),
  ('COc1cccc(NC2(C(=O)N[C@@H](Cc3ccccc3)C(=O)N(C)N(C#N)Cc3ccc(Cl)cc3)CCCC2)c1', 'inhibition', 12),
  ('CN(C(=O)[C@@H]1Cc2ccccc2CN1C(=O)OCc1ccccc1)N(C#N)Cc1ccc(Cl)cc1', 'inhibition', 26),
  ('CN(C(=O)[C@@H](NC(=O)[C@@H](NC(=O)c1cccs1)C(C)(C)C)C1CCCCC1)N(C#N)Cc1cccc(Cl)c1F', 'inhibition', 21),
  ('CN(C(=O)[C@H](Cc1ccc(Cl)cc1)NC(=O)[C@@H](NC(=O)c1cccs1)C(C)(C)C)N(C#N)Cc1cccc(Cl)c1F', 'inhibition', 6),
  ('CN(C(=O)[C@H](Cc1ccccc1)NC(=O)OCc1ccccc1)N(C#N)CC1CCNC1=O (some centres not stated)', 'inhibition', 21);

Please examine the following record next.
Entry under review: CN(C(=O)[C@H](Cc1ccccc1)NC(=O)C1(Oc2ccc(Cl)cc2Cl)CCCCC1)N(C#N)Cc1ccc(Cl)cc1 . Reported inhibition?
7
